# assayName: Ratio of drug level in blood to plasma in cynomolgus monkey at 0.25 uM after 10 mins by equilibrium dialysis technique
# Format: ADME, Macaca fascicularis
# protocolConditions: blood and plasma
measuredProperty: blood plasma ratio at 10 min, 0.25 µM
Simply state the number, no unit and no words.

Per the records, this molecule ( Cc1nn(C[C@H](F)CN2C3CCC2CC(OCc2cccc(F)c2)C3)c(=O)n1C (stereo partly specified) ) has blood plasma ratio at 10 min, 0.25 µM equal to 1.01

###

# assayName: Volume of distribution at steady state in cynomolgus monkey at 1 mg/kg, iv
# Format: ADME, organism-based, Macaca fascicularis
# Parameters: dose 1 mg/kg, route intravenous
# protocolConditions: in vivo, read-out: Vdss
measuredProperty: Vd (L/kg)
Give just the number in L/kg; leave the unit off.

Per the records, this compound ( Cc1nn(C[C@H](F)CN2C3CCC2CC(OCc2cccc(F)c2)C3)c(=O)n1C (stereo partly specified) ) has Vd equal to 3.07

###

# assayName: Cmax in cynomolgus monkey at 3 mg/kg, po in presence of ketoconazole
# Type: ADME, organism-based, Macaca fascicularis
# Set-up: dose 3 mg/kg, route oral
# protocolConditions: in vivo
measuredProperty: Cmax (ng/mL)
Give just the number in ng/mL; leave the unit off.

Per the records, this molecule ( Cc1nn(C[C@H](F)CN2C3CCC2CC(OCc2cccc(F)c2)C3)c(=O)n1C (stereo partly specified) ) has Cmax equal to 400

###

# assayName: AUC in beagle dog at 3 mg/kg, po
# Assay type: ADME, organism-based, Canis lupus familiaris
# Parameters: dose 3 mg/kg, route oral
# protocolConditions: plasma
measuredProperty: AUC (ng·h/mL)
Give just the number in ng·h/mL; leave the unit off.

Per the records, this compound ( Cc1nn(C[C@H](F)CN2C3CCC2CC(OCc2cccc(F)c2)C3)c(=O)n1C (stereo partly specified) ) has AUC equal to 20

###

# assayName: Fraction unbound in beagle dog liver microsomes at 0.25 uM by equilibrium dialysis technique
# Assay type: ADME, Canis lupus familiaris
measuredProperty: fraction unbound at 0.25 µM
Simply state the number, no unit and no words.

Per the records, this molecule ( Cc1nn(C[C@H](F)CN2C3CCC2CC(OCc2cccc(F)c2)C3)c(=O)n1C (stereo partly specified) ) has fraction unbound at 0.25 µM equal to 1

###

# assayName: Cmax in wild-type mouse at 3 mg/kg, po
# Type: ADME, organism-based
# Parameters: dose 3 mg/kg, route oral
# protocolConditions: in vivo
measuredProperty: Cmax
# number then unit; no other words

Per the records, this compound ( Cc1nn(C[C@H](F)CN2C3CCC2CC(OCc2cccc(F)c2)C3)c(=O)n1C (stereo partly specified) ) has Cmax equal to 110 ng/mL

###

# assayName: Half life in cynomolgus monkey at 3 mg/kg, po in presence of ketoconazole
# Format: ADME, organism-based, Macaca fascicularis
# Set-up: dose 3 mg/kg, route oral
# protocolConditions: in vivo
measuredProperty: half-life
# number then unit; no other words

Per the records, this compound ( Cc1nn(C[C@H](F)CN2C3CCC2CC(OCc2cccc(F)c2)C3)c(=O)n1C (stereo partly specified) ) has half-life equal to 2.2 h

###

# assayName: AUC in beagle dog at 1 mg/kg, iv
# Assay type: ADME, organism-based, Canis lupus familiaris
# Design: dose 1 mg/kg, route intravenous
# protocolConditions: plasma
measuredProperty: AUC (µg·h/mL)
Give just the number in µg·h/mL; leave the unit off.

Per the records, this compound ( Cc1nn(C[C@H](F)CN2C3CCC2CC(OCc2cccc(F)c2)C3)c(=O)n1C (stereo partly specified) ) has AUC equal to 0.62
